Overview of reported % ID GI Tract across a group of molecules:
Test: Normal rat biodistribution
Type: in vivo
Conditions: 15 min post-injection, i.v., male Wistar rats, Mean±SD n=3

As a guide, the following entries are already answered.
CC(=NO)C(C)(C)NCCN(CCNC(=O)C1CCC(CNC(=O)c2ccc(S(=O)(=O)NCCCCCN)cc2)CC1)CCNC(C)(C)C(C)=NO (centres unmarked) ... 9.6 ± 0.9 % ID
CC(=NO)C(C)(C)NCC(C)(CNC(=O)C1CCC(CNC(=O)c2ccc(S(=O)(=O)NCCCCCN)cc2)CC1)CNC(C)(C)C(C)=NO (centres unmarked) ... 70.9 ± 1.3 % ID
CC(CNCc1ccccc1O)(CNCc1ccccc1O)CNC(=O)c1ccc(S(=O)(=O)NCCCCCN)cc1 ... 45.68 ± 4.1 % ID
NCCCCCNS(=O)(=O)c1ccc(C(=O)NCCCNC(=O)c2ccc(NN)nc2)cc1 ... 23.3 ± 6.5 % ID

With those in mind, consider the next molecule.
Which % ID GI Tract value is on record for CC(=NO)C(C)(C)NCC(C)(CNC(=O)c1ccc(S(=O)(=O)NCCCCCN)cc1)CNC(C)(C)C(C)=NO (centres unmarked) ?
70 + 3.4 % ID

Numbers sourced from patent US6897209B2.
